Procedure Summary: BSK_4H_Eotaxin3: BioMAP Diversity Plus: 4H Assay for Eotaxin 3 Biomarker Activity (AID 2283000)
Measurement Context: primary human endothelial cells (HUVEC); actives raise or lower the signal
Activity calls are given as the source filed them. Rule for the calls: active = hit-call score of the fitted dose curve at least 0.9, where 1 is the maximum; inactive = score below 0.9.
Outcomes: true (1) (active), false (0) (inactive)

• c1ccc2sc(SNC3CCCCC3)nc2c1 = false (0)
• O=[N+]([O-])c1cccc2ccccc12 = false (0)
• CCN(CC)C(=O)C(Cl)=C(C)OP(=O)(OC)OC = false (0)
• Cc1ccc2nc3sc(=O)sc3nc2c1 = true (1)
• OC(Cc1ccccc1Cl)(Cn1cncn1)C1(Cl)CC1 (stereo unspecified) = false (0)
• Cc1c([N+](=O)[O-])c(C)c([N+](=O)[O-])c(C(C)(C)C)c1[N+](=O)[O-] = true (1)

----------
Procedure Summary: CCTE_Mundy_HCI_hNP1_Casp3_7: CCTE's Caspase-Glo 3/7 Assay in human neuroprogenitor cells for Apoptosis, Mundy Lab (AID 2284240)
Calls of active or inactive are those of the source. Rule for the calls: active = hit-call score of the fitted dose curve at least 0.9, where 1 is the maximum; inactive = score below 0.9.
Outcomes: active, inactive

* OC(Cc1ccccc1Cl)(Cn1[nH]cnc1=S)C1(Cl)CC1 (stereo not given) | active
* Cc1cc(C(F)(C(F)(F)F)C(F)(F)F)ccc1NC(=O)c1cccc(I)c1C(=O)NC(C)(C)CS(C)(=O)=O | inactive
* Cc1ccccc1OP(=O)(Oc1ccccc1C)Oc1ccccc1C | active
* CNC(=O)CSP(=O)(OC)OC | inactive
* CCOCn1c(-c2ccc(Cl)cc2)c(C#N)c(Br)c1C(F)(F)F | active

----------
Procedure Summary: ATG_CMV_CIS: Attagene CIS-FACTORIAL HepG2 Assay for human CMV (Internal Marker) (AID 2282928);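 note: endpoint acts as a background internal control marker rather than a target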
Measurement Context: HepG2 CMV promoter reporter, transcription factor profiling; actives raise or lower the signal
Active and inactive are the calls of the source. The calls were made as follows: active = hit-call score of the fitted dose curve at least 0.9, where 1 is the maximum; inactive = score below 0.9.
Outcomes: True = active, False = inactive

• CN(CCCC(O)c1cccnc1)N=O (stereo not given) = False
• Nc1ccc(Br)cc1 = False
• O=C1c2ccccc2C(=O)C1C(=O)C(c1ccccc1)c1ccc(Cl)cc1 (stereo not given) = True
• CCOP(=S)(OCC)Oc1ccc(Cl)cc1Cl = True
• CC(=Cc1ccccc1)[N+](=O)[O-] = True
• O=[N+]([O-])c1cc([As](=O)(O)O)ccc1O = False
• COC(=O)c1cc(Oc2ccc(Cl)cc2Cl)ccc1[N+](=O)[O-] = False
• Cc1ccccc1OP(=O)(Oc1ccccc1)Oc1ccccc1 = True
• Cc1cc(SCc2sc(-c3ccc(C(F)(F)F)c(F)c3)nc2C)ccc1OCC(=O)O = False
• C=CC(=O)[O][Sn]([CH2]CCC)([CH2]CCC)[CH2]CCC = False
• C=CCOC(F)(C(F)(F)F)C(F)(F)F = False
• CN(C)C(=S)S = True
• CCOP(=S)(OCC)SCSc1cc(Cl)ccc1Cl = False
• ClCCN1CCOCC1 = False
• CCOC(=O)CC(=O)CCl = True
• CCCCCCCCCCBr = True
• N#CCC#N = False
• CCCCOP(=O)(CCCC)OCCCC = False
• CC(C)C(C)(N)C#N (stereo not given) = False
• COCC(=O)N(c1c(C)cccc1C)[C@H](C)C(=O)OC = False
• CC(F)(F)CC(F)(F)F = False
• CCOP(=S)(OCC)SCS(=O)(=O)C(C)(C)C = False
• BrCC(Br)c1ccccc1 (stereo not given) = False
• Cc1cccc(N=Nc2ccc(N(C)C)cc2)c1 = False
• O=[N+]([O-])c1ccccc1O = False
• O=C(CCl)Nc1ccccc1 = False
• Nc1c(Oc2ccccc2)cc(O)c2c1C(=O)c1ccccc1C2=O = False
• CCCCCCCCBr = False
• CCCCOC(C)=O = False
• CN(C1CCCCC1)C1CCCCC1 = False

----------
Read-out: Interleukin 2 (IL2), IL2 (gene 3558)
Procedure Summary: BSK_BT_xIL2: BioMAP Diversity Plus: BT Assay for Interleukin 2 (IL2) Biomarker Activity (AID 2284245)
Measurement Context: primary human B cells with PBMC
Active and inactive are the calls of the source. The calls were made as follows: active = hit-call score of the fitted dose curve at least 0.9, where 1 is the maximum; inactive = score below 0.9.
Readout Type: AC50

• O=S(=O)(c1ccc(Cl)cc1)c1cc(Cl)c(Cl)cc1Cl = 20 µM (active)
• CCOP(=S)(OCC)SCS(=O)(=O)C(C)(C)C = inactive
• CCOP(=O)(OCC)SCCSCC = inactive
• CCOC(=O)CC(=O)CCl = 20 µM (active)
• Cc1ccccc1OP(=O)(Oc1ccccc1)Oc1ccccc1 = inactive
• CCOP(=O)(OCC)OC(=CCl)c1ccc(Cl)cc1Cl = 20 µM (active)
• Nc1ccc(N)cc1 = inactive
• O=C(O)COc1cc(Cl)c(Cl)cc1Cl = inactive
• Cc1ccc2nc3sc(=O)sc3nc2c1 = inactive
• CC(C)(COCC1CO1)COCC1CO1 (stereo not given) = inactive
• CCCCCCCCCCCCN(C)C = inactive
• Oc1c(Br)cc(Br)cc1Br = inactive
• CCOP(=S)(OCC)OP(=S)(OCC)OCC = inactive
• Oc1cccc(-c2ccccc2)c1 = inactive
• CCOC(=O)C(SP(=S)(OC)OC)c1ccccc1 (stereo not given) = inactive
• O=[N+]([O-])c1ccc(Nc2ccccc2)cc1 = inactive
• N#CCCC(Br)(C#N)CBr (stereo not given) = 11 µM (active)
• COCC(=O)N(c1c(C)cccc1C)[C@H](C)C(=O)OC = inactive
• Cc1ccccc1OP(=O)(Oc1ccccc1C)Oc1ccccc1C = 20 µM (active)
• CC(C=O)Cc1ccc2c(c1)OCO2 (stereo not given) = inactive
• O=c1oc2ccccc2c(O)c1C(CC(O)c1ccc(-c2ccc(Br)cc2)cc1)c1ccccc1 (stereo not given) = inactive
• C#CCOC(=O)/C=C(C)/C=C/CC(C)CCCC(C)C (stereo not given) = inactive
• O=S(=O)(C(Cl)(Cl)Cl)C(Cl)(Cl)Cl = 4.48 µM (active)
• O=C1C=CC(=O)c2ccccc21 = 0.714 µM (active)
• OC(Cc1ccccc1Cl)(Cn1cncn1)C1(Cl)CC1 (stereo not given) = inactive
• CCN(CC)C(=O)C(Cl)=C(C)OP(=O)(OC)OC = inactive
• Cc1cccc(OP(=O)(Oc2cccc(C)c2)Oc2cccc(C)c2)c1 = inactive
• Cc1c([N+](=O)[O-])c(C)c([N+](=O)[O-])c(C(C)(C)C)c1[N+](=O)[O-] = inactive
• O=[N+]([O-])c1cccc2ccccc12 = inactive
• Nc1c(Oc2ccccc2)cc(O)c2c1C(=O)c1ccccc1C2=O = inactive

----------
Procedure Summary: ATG_RORE_CIS: Attagene CIS-FACTORIAL HepG2 Assay for human RAR-related Orphan Receptor Element (RORE) (AID 2282959)
Measurement Context: HepG2 Attagene cis-factorial RORE reporter, mRNA; actives raise or lower the signal
Calls of active or inactive are those of the source. The calls were made as follows: active = hit-call score of the fitted dose curve at least 0.9, where 1 is the maximum; inactive = score below 0.9.
Outcomes: 1.0 for active, 0.0 for inactive

- CC(C)(C)c1ccccc1O: 1.0
- CC(c1ccc(O)cc1)c1ccc(O)cc1: 0.0
- C=CC(=O)OCC(COC(=O)C=C)(COC(=O)C=C)COC(=O)C=C: 1.0
- CC(C)[N+](=O)[O-]: 0.0
- CC(C)(COCC1CO1)COCC1CO1 (configuration not stated): 0.0
- O=S1OC[C@@H]2[C@H](CO1)[C@]1(Cl)C(Cl)=C(Cl)[C@@]2(Cl)C1(Cl)Cl (some centres not stated): 0.0
- CC1(C)[C@H](/C=C2\CCSC2=O)[C@@H]1C(=O)OCc1coc(Cc2ccccc2)c1: 1.0

----------
System Under Test: Hepatocyte nuclear factor 4-alpha (Homo sapiens)
Procedure Summary: ATG_HNF4a_TRANS: Attagene TRANS-FACTORIAL HepG2 Assay for human Hepatocyte Nuclear Factor 4 alpha (HNF4a) (AID 2282982)
Measurement Context: HepG2 HNF4a transactivation reporter, mRNA readout
Records with an inconclusive call do not appear. Calls of active or inactive are those of the source. Rule for the calls: active = hit-call score of the fitted dose curve at least 0.9, where 1 is the maximum; inconclusive = response in the unintended direction; inactive = score below 0.9.
Outcomes: active, inactive

• C[C@@H]1O[C@@H](O[C@H]2C[C@@H](O)[C@]3(CO)[C@H]4[C@H](O)C[C@]5(C)[C@@H](C6=CC(=O)OC6)CC[C@]5(O)[C@@H]4CC[C@]3(O)C2)[C@H](O)[C@H](O)[C@H]1O = inactive
• O=C(CCl)Nc1ccccc1 = inactive
• CCC[CH2][Sn]([Cl])([Cl])[CH2]CCC = inactive
• O=C1c2ccccc2C(=O)C1C(=O)C(c1ccccc1)c1ccc(Cl)cc1 (stereo not given) = inactive
• CCCCOC(C)=O = inactive
• BrCCCCBr = inactive
• CN(C)C(=S)S = inactive
• CN(C)c1ccc(N=O)cc1 = inactive
• C=CC(=O)[O][Sn]([CH2]CCC)([CH2]CCC)[CH2]CCC = inactive
• CN(N=O)C(N)=O = inactive
• CCCCCCCCBr = inactive
• O=C(NC(=O)c1c(F)cccc1F)Nc1cc(Cl)c(OC(F)(F)C(F)C(F)(F)F)cc1Cl (stereo not given) = inactive
• O=[N+]([O-])c1ccc(Nc2ccccc2)cc1 = inactive
• COC(=O)c1cc(Oc2ccc(Cl)cc2Cl)ccc1[N+](=O)[O-] = inactive
• Nc1c(Oc2ccccc2)cc(O)c2c1C(=O)c1ccccc1C2=O = inactive
• Brc1ccc(Oc2c(Br)cc(Br)cc2Br)c(Br)c1 = inactive
• [Cl][Sn]([c]1ccccc1)([c]1ccccc1)[c]1ccccc1 = active
• CC(C)[C@H](C(=O)OC(C#N)c1cccc(Oc2ccccc2)c1)c1ccc(OC(F)F)cc1 (stereo not given in full) = inactive
• CCOCn1c(-c2ccc(Cl)cc2)c(C#N)c(Br)c1C(F)(F)F = inactive
• Brc1ccc(Br)cc1 = inactive
• CC(C)[C@@H](Nc1ccc(C(F)(F)F)cc1Cl)C(=O)OC(C#N)c1cccc(Oc2ccccc2)c1 (stereo not given in full) = inactive
• Cl[C@H]1OCCO[C@@H]1Cl = inactive
• CN(CCCC(O)c1cccnc1)N=O (stereo not given) = inactive
• CC1CC(=O)O1 (stereo not given) = inactive
• C[CH2][Hg][S]c1ccccc1C(=O)O = inactive
• CCC(C)(C#N)N=NC(C)(C#N)CC (stereo not given) = inactive
• Clc1cc(C(Cl)(Cl)Cl)cnc1Cl = inactive
• CCCCC(CC)C(=O)Cl (stereo not given) = inactive
• O=NN1CCCCCCC1 = inactive
• OC(Cc1ccccc1Cl)(Cn1cncn1)C1(Cl)CC1 (stereo not given) = inactive
• CC(c1ccc(O)cc1)c1ccc(O)cc1 = inactive
• NC(=O)c1ccc(N)nc1 = inactive
• C=CCOC(F)(C(F)(F)F)C(F)(F)F = inactive
• COP(=S)(OC)Oc1cc(Cl)c(I)cc1Cl = inactive
• CCOP(=S)(OCC)Oc1ccc(Cl)cc1Cl = inactive
• CCOP(=S)(OCC)OP(=S)(OCC)OCC = inactive
• CC(=O)CN(CC(C)=O)N=O = inactive
• CCCCOC(=O)COC(=O)c1ccccc1C(=O)OCCCC = inactive
• C[N+](C)(C)Cc1ccccc1 = inactive
• O=C(CCl)NCO = inactive
• C=C(C)C(=O)OCCCCOC(=O)C(=C)C = inactive
• C=CC(=O)NC(C)(C)CC(C)=O = inactive
• CCOC(=O)c1ccccc1S(=O)(=O)NC(=O)Nc1nc(Cl)cc(OC)n1 = inactive
• O=c1oc2ccccc2c(O)c1C(CC(O)c1ccc(-c2ccc(Br)cc2)cc1)c1ccccc1 (stereo not given) = inactive
• CCN(CC)C(=O)C(Cl)=C(C)OP(=O)(OC)OC = inactive
• CNC(=O)CSP(=O)(OC)OC = inactive
• CC(C=O)Cc1ccc2c(c1)OCO2 (stereo not given) = inactive
• OC(c1ccc(Cl)cc1)(c1ccc(Cl)cc1)c1cccnc1 = inactive
• C=CCOC(N)=O = inactive
• c1cc[c]([Sb]([c]2ccccc2)[c]2ccccc2)cc1 = inactive
• Nc1ccc(N)cc1 = inactive
• CN(C)CCN(C)C = inactive
• [F][Sn]([c]1ccccc1)([c]1ccccc1)[c]1ccccc1 = inactive
• Oc1ccc(Cc2ccc(O)cc2)cc1 = inactive
• CCOc1ccc(N)cc1 = inactive

Origin of measurements: PubChem BioAssay (EPA / NIEHS)
